Assay: activity coefficient (dimensionless); of the first substance listed, at infinite dilution; xn = mol fraction of the nth substance listed
Conditions: 333.15 K; Liquid; Chromatography; x1 = 0
# note: boundary value 0.7 maps to label 0; activity coefficient below it maps to label 1

>>> qualitative_label("C1COCCO1 [1,4-dioxane] + CCCOC[n+]1ccn(C)c1.F[B-](F)(F)F")
"label 0"
>>> qualitative_label("CC#N [acetonitrile] + CCCCCCCCn1cc[n+](COCCCOC[n+]2ccn(CCCCCCCC)c2C)c1C.O=S(=O)([N-]S(=O)(=O)C(F)(F)F)C(F)(F)F.O=S(=O)([N-]S(=O)(=O)C(F)(F)F)C(F)(F)F")
"label 1"
>>> qualitative_label("Cc1ccccc1 [toluene] + CN(C)c1cc[n+](COCCCOC[n+]2ccc(N(C)C)cc2)cc1.O=S(=O)([N-]S(=O)(=O)C(F)(F)F)C(F)(F)F.O=S(=O)([N-]S(=O)(=O)C(F)(F)F)C(F)(F)F")
"label 0"
>>> qualitative_label("CCCCCCCC [octane] + CCCOC[n+]1ccc(N(C)C)cc1.O=S(=O)([N-]S(=O)(=O)C(F)(F)F)C(F)(F)F")
"label 0"
>>> qualitative_label("Cc1ccc(C)cc1 [1,4-dimethylbenzene] + CCCCCCCCn1cc[n+](COCCCOC[n+]2ccn(CCCCCCCC)c2C)c1C.O=S(=O)([N-]S(=O)(=O)C(F)(F)F)C(F)(F)F.O=S(=O)([N-]S(=O)(=O)C(F)(F)F)C(F)(F)F")
"label 0"

---

Experiment: activity coefficient (dimensionless); of the first substance listed, at infinite dilution; xn = mol fraction of the nth substance listed
Settings: 333.15 K; Liquid; Chromatography; x1 = 0
Readout kind: activity coefficient

>>> quantitative_readout("CC(C)CO [2-methyl-1-propanol] + CCCOC[n+]1ccn(C)c1.O=S(=O)([N-]S(=O)(=O)C(F)(F)F)C(F)(F)F")
1.93
>>> quantitative_readout("CC(C)CC(C)(C)C [2,2,4-trimethylpentane] + CCCCCCCCn1cc[n+](COCCCOC[n+]2ccn(CCCCCCCC)c2C)c1C.N#C[N-]C#N.N#C[N-]C#N")
10.5
>>> quantitative_readout("Cc1ccc(C)cc1 [1,4-dimethylbenzene] + CCCOC[n+]1ccn(Cc2ccccc2)c1.F[B-](F)(F)F")
4.85
>>> quantitative_readout("ClCCl [dichloromethane] + CCCOC[n+]1ccn(Cc2ccccc2)c1.N#C[N-]C#N")
0.63

---

Test: activity coefficient (dimensionless); of the first substance listed, at infinite dilution; xn = mol fraction of the nth substance listed
Details: 333.15 K; Liquid; Chromatography; x1 = 0
List of activity coefficient values.
Readout kind: activity coefficient

>>> quantitative_readout("CO [methanol] + CCCCCCCCn1cc[n+](COCCC)c1C.O=S(=O)([N-]S(=O)(=O)C(F)(F)F)C(F)(F)F")
0.89
>>> quantitative_readout("CCC(=O)CC [pentan-3-one] + N#C[N-]C#N.N#C[N-]C#N.c1ccc(Cn2cc[n+](COCCCOC[n+]3ccn(Cc4ccccc4)c3)c2)cc1")
2.89
>>> quantitative_readout("Cc1ccccc1C [1,2-dimethylbenzene] + CCCOC[n+]1ccn(Cc2ccccc2)c1.O=S(=O)([N-]S(=O)(=O)C(F)(F)F)C(F)(F)F")
1.23

src = the NIST ThermoML archive (doi:10.1016/j.fluid.2014.11.020)
